Listed here: items and their measured pIC50.
- System: RKO
- ASSAY NAME: Antiproliferative activity against wild-type p53 expressing human RKO cells assessed as inhibition of cell proliferation by MTT assay
- Format: functional, cell-based
By convention, pIC50 is the negative base-10 log of a molar concentration.

COc1cc(C(N)=O)ccc1NC(=O)[C@@H]1N[C@@H](CC(C)(C)C)[C@@]2(C(=O)Nc3c2ccc(Cl)c3F)[C@H]1c1cccc(Cl)c1F (racemic) | 5.97
COc1cc(NC(=O)[C@@H]2N[C@@H](CC(C)(C)C)[C@@]3(C(=O)Nc4cc(Cl)ccc43)[C@H]2c2cccc(Cl)c2F)ccc1C(N)=O | 7.05

Recorded pIC50 of COc1cc(C(N)=O)ccc1NC(=O)[C@@H]1N[C@@H](CC(C)(C)C)[C@@]2(C(=O)Nc3cc(Cl)cc(F)c32)[C@H]1c1cccc(Cl)c1F , please.
7.10

What does the data say about its pIC50? Entry: CC(C)(C)C[C@@H]1N[C@@H](C(=O)Nc2ccc(C(N)=O)cc2)[C@H](c2cccc(Cl)c2F)[C@]12C(=O)Nc1cc(Cl)ccc12
6.82

This collection of values is drawn from ChEMBL document CHEMBL3352737.
